// provenance: paper PMC9482650

Target: T1, TX1BP3, O14907
T1 sequence (O14907 10-122, limits assumed, looked up): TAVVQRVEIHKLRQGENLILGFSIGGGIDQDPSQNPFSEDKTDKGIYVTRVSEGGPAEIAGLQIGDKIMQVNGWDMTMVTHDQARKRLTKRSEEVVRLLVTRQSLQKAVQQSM
Experiment: holdup assay
Design: key: below the threshold = too weak to quantify, mostly under pKd 3.1 to 4
Details: plain residues with an end cap or a label only (N-terminal biotin on a linker: ado-ado)
Observation Type: pKd

STYCDYTIEI [FAM71C, Q8NEG0] | below the threshold
SQDPKKPSRV [CBY2, Q8NA61] | below the threshold
TKDKVQETQI [LRRC4, Q9HBW1] | 4.28
GSQSQVETEA [FKBP4, Q02790] | below the threshold
SAGADSETHC [SLCO1B1, Q9Y6L6] | below the threshold
PALKNGQYWV [CSPG4, Q6UVK1] | 4.19
PGKKPEDSRV [SLCO2B1, O94956] | 3.54
SSSVNVSSNL [CXCR1, P25024] | 3.84
